Tested On: Nuclear receptor ROR-gamma (Homo sapiens)
Procedure Details: qHTS assay to identify small molecule antagonists of the retinoid-related orphan receptor gamma (ROR-gamma) signaling pathway (AID 1159521; further: nearly all actives have a fitted effect of over 50% in size)
Test Settings: Tet-on RORgamma CHO cells, RORE-luciferase, 16 h; series mostly up to 92.4 µM
Inconclusive results are not listed. Activity calls are given as the source filed them. The call rests on the fitted dose curve; in most records, active means well fitted inhibition curve with a large enough effect in the repeat runs; inconclusive means weak or mixed curves, or effect the other way; inactive means no such curve, though single readings can be large or run the other way.
Valid outcomes are listed here; reply with one: active, inactive

CO/N=C(/C(=O)OC)c1ccccc1COc1ccccc1C: active
CCOC(=O)C(Cl)C(C)=O (stereo unspecified): inactive
N#CCc1ccccc1: inactive
O=Cc1ccc2c(c1)OCO2: inactive
CN1C(=O)C(O)N=C(c2ccccc2)c2cc(Cl)ccc21 (stereo unspecified): inactive
COC(=O)C(Cl)C(=O)OC: inactive

Name the outcome recorded for CCC(Cl)CCl (stereo unspecified) in the assay.
inactive

Name the outcome recorded for Cc1ccccc1CCl in the assay.
inactive

Name the outcome recorded for Nc1nc(N)nc(N)n1 in the assay.
inactive

Name the outcome recorded for CC(Cl)C(C)Cl (stereo unspecified) in the assay.
inactive

Name the outcome recorded for C[C@@H]1CC[C@H]2[C@@H](C)C(=O)O[C@@H]3O[C@@]4(C)CC[C@@H]1[C@]32OO4 in the assay.
active

Name the outcome recorded for N#C/C(N)=C(/N)C#N in the assay.
inactive

Name the outcome recorded for CCOP(=O)(OCC)SCCSCC in the assay.
inactive

Name the outcome recorded for O=C(CBr)c1ccccc1 in the assay.
inactive

Name the outcome recorded for CC(C)(Cl)[N+](=O)[O-] in the assay.
inactive

Name the outcome recorded for CC(C)=CCOc1c2occc2cc2ccc(=O)oc12 in the assay.
inactive

Name the outcome recorded for OC(c1ccc(Cl)cc1)(c1ccc(Cl)cc1)c1cccnc1 in the assay.
active

Name the outcome recorded for O=C(O)CC(Cl)C(=O)O (stereo unspecified) in the assay.
inactive

* * *

Procedure Details: qHTS assay to identify small molecule antagonists of the estrogen receptor beta (ER-beta) signaling pathway - cell viability counter screen (AID 1259382); further: nearly all actives have a fitted effect of over 55% in size
Test Settings: ER-beta-UAS-bla HEK293T viability, CellTiter-Glo luminescence, 16 h; series mostly up to 92.4 µM
Inconclusive results are not listed. Calls of active or inactive are those of the source. The call rests on the fitted dose curve; in most records, active means well fitted cell-killing curve with a large enough effect in the repeat runs; inconclusive means weak or mixed curves; inactive means flat fitted curve, though single readings scatter.
Valid outcomes are listed here; reply with one: 1 (active), -1 (inactive)

Brc1ccccc1: -1
CCCCCC[N+](=O)[O-]: -1
c1ccc(CN2CCNCC2)cc1: -1
IC(I)=C(I)I: 1

Switching to the query record.
Name the outcome recorded for C=CC(C)=O in the assay.
-1

* * *

Tested On: Nuclear receptor subfamily 1 group I member 2 (Homo sapiens)
Procedure Details: Human pregnane X receptor (PXR) small molecule agonists, qHTS assay (AID 1346982); further: nearly all actives have a fitted effect of over 35% in size
Test Settings: PXR-Luc HepG2, CYP3A4 luciferase reporter, 24 h; series mostly up to 92.4 µM
Inconclusive results are not listed. Calls of active or inactive are those of the source. Calls come from the whole dose curve; as a rule, active = well fitted activation curve with a large enough effect in the repeat runs; inconclusive = weak or mixed curves; inactive = no such curve, though single readings can be large or run the other way.
Valid outcomes are listed here; reply with one: active, inactive

Before answering, review these 4 worked examples.
O=[Se]=O: inactive
CCCN(CCCl)c1c([N+](=O)[O-])cc(C(F)(F)F)cc1[N+](=O)[O-]: active
CCOP(=S)(Oc1ccc([N+](=O)[O-])cc1)c1ccccc1 (stereo not given): inactive
NNC(=O)c1cccnc1: active

Name the outcome recorded for c1ccc(C2CC2)c(OCC2=NCCN2)c1 in the assay.
inactive

* * *

Tested On: Luciferin 4-monooxygenase (Photinus pyralis)
Procedure Details: qHTS assay to identify small molecule inhibitors of firefly luciferase (AID 1224835); further: nearly all actives have a fitted effect of over 25% in size
Test Settings: purified P. pyralis luciferase, luminescence inhibition; series mostly up to 115 µM
Records with an inconclusive call do not appear. Active and inactive are the calls of the source. Calls follow the shape of the dose curve; as a rule, active = well fitted inhibition curve with a large enough effect in the repeat runs; inconclusive = weak or mixed curves; inactive = flat fitted curve, though single readings scatter.
Valid outcomes are listed here; reply with one: yes = active, no = inactive

Before answering, review these 4 worked examples.
CCO[C@H]1O[C@@H]2OC3(C)CC[C@H]4[C@H](C)CC[C@@H]([C@H]1C)[C@@]24OO3: no
C[C@H]1CNCCc2ccc(Cl)cc21: no
CC(=O)NC1CCSC1=O (stereo not drawn): no
Cc1ccc(-c2c(Cl)nc(C#N)n2S(=O)(=O)N(C)C)cc1: yes

Name the outcome recorded for O=C1CN=C(c2ccccc2)c2cc(Cl)ccc2N1CC1CC1 in the assay.
no

Name the outcome recorded for O=C(CBr)c1ccccc1 in the assay.
no

Name the outcome recorded for CC(C)=CCOc1c2occc2cc2ccc(=O)oc12 in the assay.
no

Name the outcome recorded for COc1ccc(-c2ccccc2)cc1NNC(=O)OC(C)C in the assay.
no

Name the outcome recorded for C=CC(=O)NCNC(=O)C=C in the assay.
no
